# MEASURED_ON: TEL-ALK-F1174L-BaF3 (Homo sapiens, UniProt Q9UM73, F1174L, cells depend on it)
# Construct: fused on or other part: TEL (ETV6) N-terminal oligomerising part fused before the ALK intracellular/kinase part; P41212 (Transcription factor ETV6)
# Sequence (Q9UM73 whole entry F1174L, the tested form may be a part): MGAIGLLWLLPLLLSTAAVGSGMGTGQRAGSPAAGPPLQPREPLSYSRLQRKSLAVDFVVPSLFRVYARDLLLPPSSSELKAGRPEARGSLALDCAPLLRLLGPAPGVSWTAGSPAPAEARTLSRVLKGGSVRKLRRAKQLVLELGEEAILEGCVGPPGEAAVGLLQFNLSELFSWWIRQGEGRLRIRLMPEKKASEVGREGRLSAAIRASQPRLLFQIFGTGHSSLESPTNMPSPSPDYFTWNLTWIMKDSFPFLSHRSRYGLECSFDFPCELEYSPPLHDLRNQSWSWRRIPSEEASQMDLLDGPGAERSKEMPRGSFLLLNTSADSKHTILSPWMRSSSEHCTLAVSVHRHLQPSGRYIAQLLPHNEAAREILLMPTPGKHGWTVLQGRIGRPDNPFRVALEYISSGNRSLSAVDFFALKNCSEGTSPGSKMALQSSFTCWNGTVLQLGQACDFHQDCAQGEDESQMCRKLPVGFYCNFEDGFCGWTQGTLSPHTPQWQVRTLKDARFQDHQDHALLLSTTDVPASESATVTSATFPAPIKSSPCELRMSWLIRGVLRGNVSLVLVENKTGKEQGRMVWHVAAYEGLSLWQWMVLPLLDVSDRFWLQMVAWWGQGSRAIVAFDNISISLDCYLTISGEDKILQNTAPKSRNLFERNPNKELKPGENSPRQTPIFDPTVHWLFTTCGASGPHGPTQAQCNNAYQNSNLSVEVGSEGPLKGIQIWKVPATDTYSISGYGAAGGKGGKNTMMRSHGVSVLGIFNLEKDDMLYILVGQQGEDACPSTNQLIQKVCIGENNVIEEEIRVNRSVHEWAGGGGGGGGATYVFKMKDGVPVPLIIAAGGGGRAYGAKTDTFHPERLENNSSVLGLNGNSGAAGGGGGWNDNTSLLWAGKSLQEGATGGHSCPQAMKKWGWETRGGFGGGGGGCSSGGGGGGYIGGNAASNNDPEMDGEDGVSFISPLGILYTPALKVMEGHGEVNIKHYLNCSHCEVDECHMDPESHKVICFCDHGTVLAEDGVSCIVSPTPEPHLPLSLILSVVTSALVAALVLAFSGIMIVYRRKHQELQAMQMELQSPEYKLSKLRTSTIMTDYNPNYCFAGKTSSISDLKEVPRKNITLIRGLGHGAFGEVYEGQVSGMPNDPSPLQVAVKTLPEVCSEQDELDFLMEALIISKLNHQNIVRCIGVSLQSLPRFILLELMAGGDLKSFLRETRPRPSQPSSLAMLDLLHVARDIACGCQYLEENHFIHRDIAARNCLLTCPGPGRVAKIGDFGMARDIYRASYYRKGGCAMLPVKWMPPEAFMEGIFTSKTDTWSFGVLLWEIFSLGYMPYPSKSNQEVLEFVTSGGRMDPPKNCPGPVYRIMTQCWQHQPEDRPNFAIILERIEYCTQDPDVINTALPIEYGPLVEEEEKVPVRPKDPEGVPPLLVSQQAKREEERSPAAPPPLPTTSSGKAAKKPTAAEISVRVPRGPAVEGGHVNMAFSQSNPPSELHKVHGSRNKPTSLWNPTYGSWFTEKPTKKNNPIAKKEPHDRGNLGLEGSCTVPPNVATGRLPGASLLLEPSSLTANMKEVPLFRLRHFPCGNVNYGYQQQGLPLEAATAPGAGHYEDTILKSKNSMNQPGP
# ASSAY_TEXT: Cell proliferation experiment (Cell-Titer GLO), TEL-ALK-F1174L-BaF3
# Assay type: cell-based
# CONDITION_NOTES: 72 h, read-out: IC50 TEL-ALK F1174L-BaF3
Parameter: GI50. Scope: all listed entries.

Ask: Name the recorded GI50 for Cc1cc(Nc2nc(Nc3cn(C)nc3S(=O)(=O)C(C)C)c3sccc3n2)c2c(c1C1CCN(C)CC1)C[C@@H](C)O2 .
Reply: > 500 nM

Ask: Same again, this time with Cc1cc(Nc2ncc(Cl)c(Nc3cn(C(C)C)nc3S(=O)(=O)C(C)C)n2)c2c(c1C1CCNCC1)C[C@@H](C)O2
Reply: < 200 nM

Ask: Can you handle CCn1cc(Nc2nc(Nc3cc(C)c(C4CCN(C)CC4)c4c3O[C@H](C)C4)ncc2Cl)c(S(=O)(=O)C(C)C)n1 next?
Reply: 22.4 nM

Ask: Could you do the same for CC(C)S(=O)(=O)c1nn(C)cc1Nc1nc(Nc2cc(F)c(C3CCN(C)CC3)c3c2O[C@H](C)C3)ncc1Cl , please?
Reply: < 10 nM

Ask: Next: Cc1cc(Nc2ncc(C(F)(F)F)c(Nc3cn(C)nc3S(=O)(=O)C(C)C)n2)c2c(c1C1CCN(C)CC1)C[C@@H](C)O2
Reply: < 10 nM
